system: Epidermal growth factor receptor (Homo sapiens), P00533 [L861Q]; conditions: at 1 µM
Sequence (P00533 whole entry L861Q): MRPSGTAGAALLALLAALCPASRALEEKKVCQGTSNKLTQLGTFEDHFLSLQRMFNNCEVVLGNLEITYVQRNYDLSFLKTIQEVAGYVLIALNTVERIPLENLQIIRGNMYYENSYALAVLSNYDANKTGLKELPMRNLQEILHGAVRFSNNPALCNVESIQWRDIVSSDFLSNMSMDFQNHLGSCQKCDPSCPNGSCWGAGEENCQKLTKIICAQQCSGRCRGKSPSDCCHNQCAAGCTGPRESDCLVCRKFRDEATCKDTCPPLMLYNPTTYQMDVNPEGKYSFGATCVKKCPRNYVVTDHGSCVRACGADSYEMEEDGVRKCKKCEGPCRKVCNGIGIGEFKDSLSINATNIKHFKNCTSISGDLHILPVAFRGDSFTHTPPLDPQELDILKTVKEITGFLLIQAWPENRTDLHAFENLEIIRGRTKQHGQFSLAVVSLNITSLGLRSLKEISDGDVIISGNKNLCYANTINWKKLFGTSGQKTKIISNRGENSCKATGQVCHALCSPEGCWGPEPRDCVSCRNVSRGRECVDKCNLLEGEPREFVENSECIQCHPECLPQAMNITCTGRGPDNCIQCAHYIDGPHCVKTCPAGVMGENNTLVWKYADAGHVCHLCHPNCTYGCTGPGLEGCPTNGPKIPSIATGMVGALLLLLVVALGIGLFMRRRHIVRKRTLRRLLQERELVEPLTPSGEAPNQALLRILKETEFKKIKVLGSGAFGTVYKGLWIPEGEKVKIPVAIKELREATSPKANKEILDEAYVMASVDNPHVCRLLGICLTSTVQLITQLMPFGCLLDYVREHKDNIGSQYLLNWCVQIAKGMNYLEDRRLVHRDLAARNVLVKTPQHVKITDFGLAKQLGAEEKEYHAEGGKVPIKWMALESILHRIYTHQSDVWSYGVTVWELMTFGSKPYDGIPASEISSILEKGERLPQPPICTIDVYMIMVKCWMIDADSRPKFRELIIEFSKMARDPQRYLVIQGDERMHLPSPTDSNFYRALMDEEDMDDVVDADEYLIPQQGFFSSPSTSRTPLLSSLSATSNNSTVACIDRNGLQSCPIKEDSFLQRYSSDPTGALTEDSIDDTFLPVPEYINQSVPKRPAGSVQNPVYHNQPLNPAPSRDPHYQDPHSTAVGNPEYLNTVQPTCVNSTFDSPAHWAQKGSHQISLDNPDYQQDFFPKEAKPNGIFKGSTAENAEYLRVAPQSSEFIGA
READOUT NAME: inhibition (%)
Write down the numeric answer in % and omit the unit.

CCOc1nccc2c1nc(-c1nonc1N)n2CC; 5.85
c1ccc(Cc2nc3ccc(Nc4ncnc5ccccc45)cc3[nH]2)cc1; 22.2
Cc1cc(-c2ccccn2)cc(C)c1/C=C/c1cncc(-c2nn[nH]n2)c1; 5.99
NS(=O)(=O)c1cccc(Nc2cc(-c3ccc(F)cc3)n[nH]2)c1; 5.8
NS(=O)(=O)c1ccc(NC=C2C(=O)Nc3ccc4ncsc4c32)cc1; 0.54
Oc1cccc(-c2nc(-c3ccccc3)[nH]c2-c2ccncc2)c1; 8.26

INPUT: Please look up its inhibition: NS(=O)(=O)c1ccc(-c2cc3ccncc3cc2OCc2ccccc2)cc1
OUTPUT: 5.67

###

target: Insulin receptor-related protein (Homo sapiens) (UniProt P14616); conditions: at 1 µM;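 also: each reported figure is the mean of the IRR inhibition readings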
Sequence (P14616 27-742 limits assumed): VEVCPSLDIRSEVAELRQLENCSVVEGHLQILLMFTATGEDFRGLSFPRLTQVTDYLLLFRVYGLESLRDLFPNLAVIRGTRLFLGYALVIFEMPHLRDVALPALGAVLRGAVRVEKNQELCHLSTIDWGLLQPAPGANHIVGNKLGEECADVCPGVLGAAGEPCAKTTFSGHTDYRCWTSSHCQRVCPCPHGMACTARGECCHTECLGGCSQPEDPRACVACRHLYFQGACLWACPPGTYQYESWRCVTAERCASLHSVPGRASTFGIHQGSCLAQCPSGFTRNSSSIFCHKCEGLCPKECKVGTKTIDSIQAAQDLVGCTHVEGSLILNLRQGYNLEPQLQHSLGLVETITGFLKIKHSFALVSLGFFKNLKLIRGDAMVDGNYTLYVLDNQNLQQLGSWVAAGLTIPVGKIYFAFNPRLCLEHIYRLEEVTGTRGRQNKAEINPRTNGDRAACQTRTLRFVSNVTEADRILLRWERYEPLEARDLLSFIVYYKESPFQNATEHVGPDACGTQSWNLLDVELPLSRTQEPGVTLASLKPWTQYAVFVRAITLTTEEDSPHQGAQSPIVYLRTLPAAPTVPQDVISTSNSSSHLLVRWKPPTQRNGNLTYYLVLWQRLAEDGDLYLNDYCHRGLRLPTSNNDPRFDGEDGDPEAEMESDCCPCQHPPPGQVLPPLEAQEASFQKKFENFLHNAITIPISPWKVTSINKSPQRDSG
Sequence (P14616 747-1297 limits assumed): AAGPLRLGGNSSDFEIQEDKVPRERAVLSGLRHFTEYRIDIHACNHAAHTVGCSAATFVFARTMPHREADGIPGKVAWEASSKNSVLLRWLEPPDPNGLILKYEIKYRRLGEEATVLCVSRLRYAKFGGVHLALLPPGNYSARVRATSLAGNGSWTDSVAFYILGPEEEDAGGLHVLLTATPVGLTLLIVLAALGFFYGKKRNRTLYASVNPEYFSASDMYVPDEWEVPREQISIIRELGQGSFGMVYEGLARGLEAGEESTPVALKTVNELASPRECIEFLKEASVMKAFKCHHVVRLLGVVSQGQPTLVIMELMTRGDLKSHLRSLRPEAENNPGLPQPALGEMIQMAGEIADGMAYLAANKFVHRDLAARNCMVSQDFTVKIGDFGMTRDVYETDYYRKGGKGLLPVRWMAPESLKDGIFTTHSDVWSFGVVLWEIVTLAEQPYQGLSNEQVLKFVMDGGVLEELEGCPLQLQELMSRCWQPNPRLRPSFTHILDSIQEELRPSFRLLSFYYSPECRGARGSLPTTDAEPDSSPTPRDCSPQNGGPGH
Readings of inhibition for the listed compounds
Write down the numeric answer in % and omit the unit.

Some compounds with recorded inhibition:
CN(C)CCCn1c(-c2nonc2N)nc2cnccc21; 4.16
Cc1cc(O)cc(C)c1/C=C/c1cncc(C(=O)N(C)C)c1; 1
C[C@@H](Oc1cc(-n2cnc3ccc(OCC4CCN(C)CC4)cc32)sc1C(N)=O)c1ccccc1C(F)(F)F; -2.86
CS(=O)(=O)CCNCc1nc(-c2ccc3ncnc(Nc4ccc(OCc5cccc(C(F)(F)F)c5)cc4)c3c2)cs1; 1.53
COC(=O)c1cncc(/C=C/c2c(C)cc(O)cc2C)c1; 2.83

Now let's try a different one.
INPUT: Reported inhibition for Insulin receptor-related protein (Homo sapiens) (UniProt P14616), given O=C1Nc2ccc(-c3cccnc3)cc2C1=Cc1cc(Br)c(O)c(Br)c1 ?
OUTPUT: 2.51

###

Target: Serine/threonine-protein kinase Nek9 (Homo sapiens) (UniProt Q8TD19);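 also: each value is a mean percent inhibition of NEK9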
Sequence (whole entry): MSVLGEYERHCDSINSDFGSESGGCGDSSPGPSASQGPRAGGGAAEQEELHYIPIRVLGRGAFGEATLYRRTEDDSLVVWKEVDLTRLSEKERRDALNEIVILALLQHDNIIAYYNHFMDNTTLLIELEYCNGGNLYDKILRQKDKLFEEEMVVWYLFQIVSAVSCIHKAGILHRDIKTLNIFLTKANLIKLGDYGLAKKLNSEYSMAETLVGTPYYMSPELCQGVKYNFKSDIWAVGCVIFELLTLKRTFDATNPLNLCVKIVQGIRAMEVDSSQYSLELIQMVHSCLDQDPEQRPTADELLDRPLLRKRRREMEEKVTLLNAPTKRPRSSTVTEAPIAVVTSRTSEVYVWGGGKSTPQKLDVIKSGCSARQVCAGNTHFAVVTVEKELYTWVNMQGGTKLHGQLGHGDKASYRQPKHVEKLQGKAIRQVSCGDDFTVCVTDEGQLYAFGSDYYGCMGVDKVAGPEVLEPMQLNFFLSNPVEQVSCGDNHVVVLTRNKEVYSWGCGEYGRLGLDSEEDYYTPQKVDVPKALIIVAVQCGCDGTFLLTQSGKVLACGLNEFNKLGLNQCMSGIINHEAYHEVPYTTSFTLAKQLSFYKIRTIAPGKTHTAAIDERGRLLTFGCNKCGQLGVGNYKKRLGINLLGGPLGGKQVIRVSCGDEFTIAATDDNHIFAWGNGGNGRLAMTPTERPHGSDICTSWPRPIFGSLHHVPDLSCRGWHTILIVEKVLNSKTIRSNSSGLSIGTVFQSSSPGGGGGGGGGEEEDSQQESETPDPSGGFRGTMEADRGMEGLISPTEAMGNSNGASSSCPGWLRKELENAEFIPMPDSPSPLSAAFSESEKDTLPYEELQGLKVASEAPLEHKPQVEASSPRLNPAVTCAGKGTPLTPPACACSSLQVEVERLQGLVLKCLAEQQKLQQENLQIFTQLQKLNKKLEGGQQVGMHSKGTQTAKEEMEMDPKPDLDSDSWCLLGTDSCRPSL
Settings: at 1 µM
READOUT NAME: inhibition
Enter the number, and then the unit.

COc1cccc(-n2ncc3c(N/N=C/c4ccc(S(C)(=O)=O)cc4)ncnc32)c1; 1.23%

INPUT: Please look up its inhibition: Nc1ccc(C#Cc2cncnc2Nc2ccc(OCc3cccc(F)c3)c(Cl)c2)cc1
OUTPUT: 6.07%

INPUT: Please look up its inhibition: COc1ccc(-c2nn3ncccc3c2-c2ccnc(Nc3cccc(C(F)(F)F)c3)n2)cc1
OUTPUT: 3.9%

INPUT: Please look up its inhibition: CN(c1ccc(NC(=O)Nc2ccc(OC(F)(F)F)cc2)cc1)c1ccnc(Nc2cccc(S(N)(=O)=O)c2)n1
OUTPUT: 17.1%

INPUT: Please look up its inhibition: CCn1c(-c2nonc2N)nc2ccc(F)cc21
OUTPUT: 6.41%

INPUT: Please look up its inhibition: Cc1ccc(NC(=O)CC2CC2)cc1-c1ccc(C(=O)NCC2CC2)cc1
OUTPUT: 7.42%

INPUT: Please look up its inhibition: CN(C)c1cc2c(Nc3ccc4c(cnn4Cc4ccccc4)c3)ncnc2cn1
OUTPUT: 6.27%

INPUT: Please look up its inhibition: CN(C)C(=O)O[C@H]1CN[C@H](C#Cc2cc3ncnc(Nc4ccc(OCc5cccc(F)c5)c(Cl)c4)c3s2)C1
OUTPUT: -1.84%

INPUT: Please look up its inhibition: N#Cc1cccc(Nc2nccc(-c3cnn4ncccc34)n2)c1
OUTPUT: 15.6%

INPUT: Please look up its inhibition: COc1cccc(-n2ncc3c(N/N=C/c4ccc(C)cc4)ncnc32)c1
OUTPUT: 9.51%

INPUT: Please look up its inhibition: Cc1ccc(C(=O)NC2CC2)cc1-c1ccc2[nH]ncc2c1
OUTPUT: -2.78%

INPUT: Please look up its inhibition: Cc1cc(-c2ccccn2)cc(C)c1/C=C/c1cncc(-c2nn[nH]n2)c1
OUTPUT: 5.99%

INPUT: Please look up its inhibition: NS(=O)(=O)c1ccc(N/N=C2\C(=O)Nc3ccc(Cl)cc32)cc1
OUTPUT: 9.42%

###

target: Tyrosine-protein kinase TXK (Homo sapiens) (UniProt P42681); conditions: at 1 µM;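 also: value given is the mean percent inhibition of TXK kinase activity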
Sequence (P42681 whole entry): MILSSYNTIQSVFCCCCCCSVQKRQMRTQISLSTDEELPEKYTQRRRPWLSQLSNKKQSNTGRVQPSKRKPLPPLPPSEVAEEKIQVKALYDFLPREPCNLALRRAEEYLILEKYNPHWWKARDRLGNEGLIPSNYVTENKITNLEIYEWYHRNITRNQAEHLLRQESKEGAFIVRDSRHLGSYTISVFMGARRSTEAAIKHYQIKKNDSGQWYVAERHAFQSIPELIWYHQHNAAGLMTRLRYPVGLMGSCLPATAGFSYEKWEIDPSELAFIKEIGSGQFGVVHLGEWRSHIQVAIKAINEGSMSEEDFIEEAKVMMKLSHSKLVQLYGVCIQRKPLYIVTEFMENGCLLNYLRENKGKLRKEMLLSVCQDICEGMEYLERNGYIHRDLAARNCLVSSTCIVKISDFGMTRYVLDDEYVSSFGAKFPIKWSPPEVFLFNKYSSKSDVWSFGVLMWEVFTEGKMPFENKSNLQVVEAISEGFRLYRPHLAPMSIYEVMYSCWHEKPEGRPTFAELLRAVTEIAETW
READOUT NAME: inhibition (%)
Write down the numeric answer in % and omit the unit.

OCc1ccc(-c2nc(-c3ccccn3)c(-c3ccc4c(c3)OCO4)[nH]2)cc1; 12.5
CCOc1nccc2c1nc(-c1nonc1N)n2CC; 5.69
Cc1nc(-c2ccccc2)n2nc(NCCCN3CCOCC3)ncc12; 3.59

INPUT: Please look up its inhibition: NC(=O)c1sc(-n2cnc3ccccc32)cc1OCc1ccccc1Br
OUTPUT: 5.57

INPUT: Please look up its inhibition: N#Cc1c(NC(=O)c2ccccc2F)sc2c1CCCC2
OUTPUT: 1.71

###

biological target: Receptor tyrosine-protein kinase erbB-2 (Homo sapiens); conditions: at 0.1 µM;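 also: each value is the mean percent inhibition of ERBB2 over replicate measurements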
READOUT NAME: inhibition (%)
Write down the numeric answer in % and omit the unit.

Some compounds with recorded inhibition:
CCn1c(-c2nonc2N)nc2ccc(F)cc21; 5.65
Cc1ccc2c(-c3ccnc(Nc4cccc(C(F)(F)F)c4)n3)c(-c3ccccc3)nn2n1; 5.37
COc1cc(/C=N/Nc2ncnc3c2cnn3C(C)C)ccc1O; 1.13
NS(=O)(=O)c1cccc(Nc2cc(-c3ccc(F)cc3)n[nH]2)c1; 1.6
Nc1nccc(C#Cc2cncnc2Nc2ccc(OCc3cccc(F)c3)c(Cl)c2)n1; -1.45

Now let's try a different one.
INPUT: Please look up its inhibition: COc1ccc(-c2nn3ncccc3c2-c2ccnc(Nc3cccc(C(F)(F)F)c3)n2)cc1
OUTPUT: 3.15

###

Readings of inhibition for the listed molecules
target: Ribosomal protein S6 kinase alpha-4 (Homo sapiens); settings: at 0.1 µM;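 also: values are mean inhibition of MSK2, from GSK PKIS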
Enter the number, and then the unit.

Cc1cc(O)cc(C)c1/C=C/c1cncc(C(=O)N(C)C)c1; 1.39%
Cc1ccc2c(-c3ccnc(Nc4ccc5c(c4)OCCO5)n3)c(-c3ccc(C(F)(F)F)cc3)nn2n1; 0.87%
CN(C)c1cc2c(Nc3ccc4c(cnn4Cc4ccccc4)c3)ncnc2cn1; 2.42%
O=C(Nc1ccc(Oc2ccc3[nH]c(NC(=O)c4ccco4)nc3c2)cc1)Nc1cc(C(F)(F)F)ccc1F; 1.72%
CCn1c(-c2nonc2N)nc2c(C#CC(C)(C)O)nc(OCCNC)cc21; 3.16%

INPUT: Reported inhibition for Ribosomal protein S6 kinase alpha-4 (Homo sapiens), given O=S(=O)(CCOCc1ccc(-c2ccc3ncnc(Nc4ccc(OCc5cccc(F)c5)c(Cl)c4)c3c2)o1)c1ccccc1 ?
OUTPUT: -0.78%

INPUT: Reported inhibition for Ribosomal protein S6 kinase alpha-4 (Homo sapiens), given COC(=O)Nc1nc2cc(Oc3ccc(NC(=O)Nc4cccc(Br)c4)cc3)ccc2[nH]1 ?
OUTPUT: 2.29%

INPUT: Reported inhibition for Ribosomal protein S6 kinase alpha-4 (Homo sapiens), given COc1ccc(-c2nn3ncccc3c2-c2ccnc(Nc3cccc(C(F)(F)F)c3)n2)cc1 ?
OUTPUT: 2.61%

###

target: Ribosomal protein S6 kinase alpha-3 (Homo sapiens); settings: at 1 µM
Description: GSK_PKIS: RSK2 mean inhibition at 1 uM [Nanosyn]
Readings of inhibition for the listed compounds
Write down the numeric answer in % and omit the unit.

Some compounds with recorded inhibition:
CC(C)c1ccc2c(c1)NC(=O)/C2=N/Nc1ccc(S(N)(=O)=O)cc1; 2.05
Nc1ccc(C#Cc2cncnc2Nc2ccc(OCc3cccc(F)c3)c(Cl)c2)cc1; 1.75
CN(C)CCCn1c(-c2nonc2N)nc2cnccc21; 6.61

INPUT: Please look up its inhibition: c1ccc(Cc2nc3ccc(Nc4ncnc5ccccc45)cc3[nH]2)cc1
OUTPUT: 2.69

INPUT: Please look up its inhibition: CN(C)c1cc2c(Nc3ccc4c(cnn4Cc4ccccc4)c3)ncnc2cn1
OUTPUT: 2.13

This collection of values is drawn from ChEMBL document CHEMBL1961873.
